B1: TRAF3IP2 (parent)
chain: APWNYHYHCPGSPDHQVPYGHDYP

# Variants of: B1
# assay.procedure: protein stability index of a GFP-peptide fusion (GPS, HEK-293T) (PSI 1-6); higher = more stable;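 also: lentivirally expressed fusions sorted by FACS into six bins by GFP to DsRed ratio, PSI derived from sequencing read proportions per bin multiplied by bin number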
# assay.conditions: c terminus: a fixed tail appended
readout.name: protein stability index

Would you please look over these solved cases?
Return value of protein stability index for input S12W , no commentary.
2

Return value of protein stability index for input Y7W , no commentary.
1.99

Return value of protein stability index for input Q16P , no commentary.
2

---
Return value of protein stability index for input G20D , no commentary.
2.95
